# tested system: APN (Homo sapiens, UniProt P15144)
# Construct: purchased Sigma-Aldrich
# Sequence (P15144 whole entry, species assumed): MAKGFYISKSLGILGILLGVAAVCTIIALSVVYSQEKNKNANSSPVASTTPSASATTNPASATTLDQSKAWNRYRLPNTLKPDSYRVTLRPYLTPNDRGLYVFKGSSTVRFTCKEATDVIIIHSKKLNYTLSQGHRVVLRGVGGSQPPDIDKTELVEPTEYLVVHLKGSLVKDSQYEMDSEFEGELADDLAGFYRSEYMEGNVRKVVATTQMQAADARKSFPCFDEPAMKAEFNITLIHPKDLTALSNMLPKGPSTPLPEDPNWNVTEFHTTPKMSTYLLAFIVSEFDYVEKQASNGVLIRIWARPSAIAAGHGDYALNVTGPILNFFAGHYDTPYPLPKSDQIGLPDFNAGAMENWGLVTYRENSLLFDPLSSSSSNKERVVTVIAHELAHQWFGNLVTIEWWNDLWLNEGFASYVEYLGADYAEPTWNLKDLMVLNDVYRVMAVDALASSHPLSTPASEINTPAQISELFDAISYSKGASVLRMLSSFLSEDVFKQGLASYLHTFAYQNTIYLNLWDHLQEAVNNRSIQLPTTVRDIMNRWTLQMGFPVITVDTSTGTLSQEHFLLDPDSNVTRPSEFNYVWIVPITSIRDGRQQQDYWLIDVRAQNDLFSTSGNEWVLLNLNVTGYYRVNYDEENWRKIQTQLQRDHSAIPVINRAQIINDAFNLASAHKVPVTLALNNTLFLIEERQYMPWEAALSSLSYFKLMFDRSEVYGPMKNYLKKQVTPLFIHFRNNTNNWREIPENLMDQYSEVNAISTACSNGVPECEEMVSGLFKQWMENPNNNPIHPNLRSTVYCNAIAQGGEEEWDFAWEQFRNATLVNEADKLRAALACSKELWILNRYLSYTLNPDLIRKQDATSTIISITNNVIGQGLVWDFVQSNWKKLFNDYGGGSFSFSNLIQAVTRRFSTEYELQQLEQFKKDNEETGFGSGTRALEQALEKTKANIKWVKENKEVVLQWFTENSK
# method notes: Kinetic assay (Lineweaver–Burk) on APN
# Format: biochemical
# particulars: from Kik/Kiv ratio, new decision system [27]
property name: inhibition type against APN

Here are 5 compounds together with their reported answers.
Find the measured inhibition type against APN of O=c1c(O)c(-c2ccc(O)cc2)oc2cc(O)cc(O)c12 [KAE, kaempferol] and report it.
uncompetitive-type

Find the measured inhibition type against APN of C=CCSSSCC=C [DATS, diallyl trisulfide] and report it.
mixed-type

Find the measured inhibition type against APN of C=CCSSCC=C [DADS, diallyl disulfide] and report it.
uncompetitive-type

Find the measured inhibition type against APN of O=c1c(O)c(-c2ccc(O)c(O)c2)oc2cc(O)cc(O)c12 [QUE, quercetin] and report it.
noncompetitive-type

Find the measured inhibition type against APN of C/C=C/[S@+]([O-])C[C@H](N)C(=O)O [IA, isoalliin] and report it.
mixed-type

Consider now this further compound.
Find the measured inhibition type against APN of C[S@+]([O-])C[C@H](N)C(=O)O [MT, methiin] and report it.
noncompetitive-type

* * *

# tested system: APN (Homo sapiens)
# Construct: purchased Sigma-Aldrich
# method notes: Kinetic assay (Lineweaver–Burk) on APN
# Format: biochemical
# particulars: APN treated with compound 2 mM
property name: Kcat (s⁻¹)
Value expressed in s⁻¹; do not type the unit.

Here are 5 compounds together with their reported answers.
Quote APN (Homo sapiens) Kcat for entry O=c1c(O)c(-c2ccc(O)cc2)oc2cc(O)cc(O)c12 .
352.8

Quote APN (Homo sapiens) Kcat for entry C[S@+]([O-])C[C@H](N)C(=O)O .
310.6

Quote APN (Homo sapiens) Kcat for entry O=c1c(O)c(-c2ccc(O)c(O)c2)oc2cc(O)cc(O)c12 .
316.6

Quote APN (Homo sapiens) Kcat for entry C/C=C/[S@+]([O-])C[C@H](N)C(=O)O .
331.6

Quote APN (Homo sapiens) Kcat for entry C=CCSSSCC=C [DATS, diallyl trisulfide] .
365.3

Continuing:
Quote APN (Homo sapiens) Kcat for entry C=CCSSCC=C [DADS, diallyl disulfide] .
379.5

* * *

# tested system: aminopeptidase N (APN) (Homo sapiens, UniProt P15144)
# Construct: purchased Sigma-Aldrich
# method notes: Aminopeptidase N (APN) enzyme activity assay with L-p-NA substrate
# Type: biochemical
pIC50: −log10 of the molar value.
property name: pIC50

Here are 2 compounds together with their reported answers.
Quote aminopeptidase N (APN) (Homo sapiens, UniProt P15144) pIC50 for entry O=c1c(O)c(-c2ccc(O)cc2)oc2cc(O)cc(O)c12 .
< 2.00

Quote aminopeptidase N (APN) (Homo sapiens, UniProt P15144) pIC50 for entry C=CCSSCC=C [DADS, diallyl disulfide] .
< 2.00

Consider now this further compound.
Quote aminopeptidase N (APN) (Homo sapiens, UniProt P15144) pIC50 for entry O=c1c(O)c(-c2ccc(O)c(O)c2)oc2cc(O)cc(O)c12 .
< 2.00

* * *

# tested system: PDE5 (Homo sapiens, UniProt O76074)
# method notes: Kinetic assay (Lineweaver–Burk) on PDE5;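 on Vmax: pure compound doses in mM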
# Format: biochemical
# Set-up: unit of the concentration uncertain
# particulars: PDE5 treated with compound 2 (unit uncertain)
property name: Vmax (mU/min)
Value expressed in mU/min; do not type the unit.

Here are 5 molecules together with their reported answers.
Find the measured Vmax of C[S@+]([O-])C[C@H](N)C(=O)O and report it.
0.738

Find the measured Vmax of C=CCSSSCC=C [DATS, diallyl trisulfide] and report it.
0.894

Find the measured Vmax of O=c1c(O)c(-c2ccc(O)c(O)c2)oc2cc(O)cc(O)c12 and report it.
0.686

Find the measured Vmax of C/C=C/[S@+]([O-])C[C@H](N)C(=O)O and report it.
0.726

Find the measured Vmax of C=CCSSCC=C [DADS, diallyl disulfide] and report it.
0.876

Consider now this further molecule.
Find the measured Vmax of O=c1c(O)c(-c2ccc(O)cc2)oc2cc(O)cc(O)c12 and report it.
0.607

* * *

# tested system: PDE5 (Homo sapiens, UniProt O76074)
# method notes: Kinetic assay (Lineweaver–Burk) on PDE5;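 on Vmax: pure compound doses in mM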
# Format: biochemical
# particulars: from changes of Km and 1/Vmax (Lineweaver–Burk), putative decision system [27]
property name: inhibition type against PDE5

Here are 4 molecules together with their reported answers.
Find the measured inhibition type against PDE5 of O=c1c(O)c(-c2ccc(O)c(O)c2)oc2cc(O)cc(O)c12 and report it.
uncompetitive-type

Find the measured inhibition type against PDE5 of C[S@+]([O-])C[C@H](N)C(=O)O and report it.
uncompetitive-type

Find the measured inhibition type against PDE5 of O=c1c(O)c(-c2ccc(O)cc2)oc2cc(O)cc(O)c12 and report it.
uncompetitive-type

Find the measured inhibition type against PDE5 of C=CCSSSCC=C [DATS, diallyl trisulfide] and report it.
noncompetitive-type

Continuing:
Find the measured inhibition type against PDE5 of C=CCSSCC=C [DADS, diallyl disulfide] and report it.
noncompetitive-type

Find the measured inhibition type against PDE5 of C/C=C/[S@+]([O-])C[C@H](N)C(=O)O and report it.
noncompetitive-type

* * *

# tested system: PDE5 (Homo sapiens, UniProt O76074)
# method notes: Kinetic assay (Lineweaver–Burk) on PDE5;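 on Vmax: pure compound doses in mM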
# Format: biochemical
# Design: unit of the concentration uncertain
# particulars: PDE5 treated with compound 5 (unit uncertain)
Values of Vmax strictly less than 0.5 mU/min map to class 1, and values of at least 0.5 mU/min map to class 0.

Example cases with answers are listed next.
Here's an entry: C/C=C/[S@+]([O-])C[C@H](N)C(=O)O [IA, isoalliin] . Is its Vmax below 0.5 mU/min?
class 0

Here's an entry: C[S@+]([O-])C[C@H](N)C(=O)O [MT, methiin] . Is its Vmax below 0.5 mU/min?
class 0

Here's an entry: C=CCSSSCC=C [DATS, diallyl trisulfide] . Is its Vmax below 0.5 mU/min?
class 0

Continuing:
Here's an entry: O=c1c(O)c(-c2ccc(O)c(O)c2)oc2cc(O)cc(O)c12 [QUE, quercetin] . Is its Vmax below 0.5 mU/min?
class 1

Here's an entry: C=CCSSCC=C [DADS, diallyl disulfide] . Is its Vmax below 0.5 mU/min?
class 0

Here's an entry: O=c1c(O)c(-c2ccc(O)cc2)oc2cc(O)cc(O)c12 [KAE, kaempferol] . Is its Vmax below 0.5 mU/min?
class 1

* * *

# tested system: PDE5 (Homo sapiens)
# method notes: Kinetic assay (Lineweaver–Burk) on PDE5
# Format: biochemical
# Design: unit of the concentration uncertain
# particulars: PDE5 treated with compound 5 (unit uncertain)
Reported Kcat is given for each of the following compounds.
Value expressed in k s^−1; do not type the unit.

Find the measured Kcat of C=CCSSSCC=C [DATS, diallyl trisulfide] and report it.
4955

Find the measured Kcat of C=CCSSCC=C [DADS, diallyl disulfide] and report it.
5905

Find the measured Kcat of C[S@+]([O-])C[C@H](N)C(=O)O and report it.
4007

Continuing:
Find the measured Kcat of O=c1c(O)c(-c2ccc(O)cc2)oc2cc(O)cc(O)c12 and report it.
2390

Find the measured Kcat of O=c1c(O)c(-c2ccc(O)c(O)c2)oc2cc(O)cc(O)c12 and report it.
2893

Find the measured Kcat of C/C=C/[S@+]([O-])C[C@H](N)C(=O)O and report it.
4387

* * *

System: UniProtKB O76074 | Read-out: pIC50
Please keep in mind that pIC50 is minus log10 of the molar concentration; only the number is needed.

Find the measured pIC50 of C=CCSSSCC=C [DATS, diallyl trisulfide] and report it.
2.02

Continuing:
Find the measured pIC50 of C[S@+]([O-])C[C@H](N)C(=O)O and report it.
2.12

* * *

# tested system: aminopeptidase N (APN) (Homo sapiens, UniProt P15144)
# Construct: purchased Sigma-Aldrich
# method notes: Aminopeptidase N (APN) enzyme activity assay with L-p-NA substrate
# Type: biochemical
# particulars: treatment with 10 mM; without sample 0.38 U
# Procedure: Figure 2 Effects of AAE and AAE-derived compounds on APN activity. […] The reaction was started by adding 20 μL enzyme solution (1 mU) and incubated for 60 min at 37 °C. The absorbance of samples were measured at 405 nm to determine the formation of p-nitroaniline. […] The activity of APN was determined according to Melzig et al.. […] The samples were measured spectrophotometrically at 405 nm to determine the formation of p-nitroanilmne. […]
Reported enzymatic activity of APN is given for each of the following compounds.
Value expressed in U; do not type the unit.

Here are 5 compounds together with their reported answers.
Find the measured enzymatic activity of APN of C=CCSSSCC=C [DATS, diallyl trisulfide] and report it.
0.31

Find the measured enzymatic activity of APN of O=c1c(O)c(-c2ccc(O)cc2)oc2cc(O)cc(O)c12 and report it.
0.27

Find the measured enzymatic activity of APN of C[S@+]([O-])C[C@H](N)C(=O)O and report it.
0.26

Find the measured enzymatic activity of APN of C=CCSSCC=C [DADS, diallyl disulfide] and report it.
0.34

Find the measured enzymatic activity of APN of O=c1c(O)c(-c2ccc(O)c(O)c2)oc2cc(O)cc(O)c12 and report it.
0.25

Continuing:
Find the measured enzymatic activity of APN of C/C=C/[S@+]([O-])C[C@H](N)C(=O)O and report it.
0.28
